Listed compounds paired with reported selectivity ratio
experiment: Therapeutic index, ratio of HC10 for mouse RBC to IC50 for cytotoxicity against human A549 cells; format: toxicity, cell-based; details: mouse RBC and A549 cells, read-out: TI
Residues, ends and D or L forms follow the SMILES beside them.
Keep it simple and answer with nothing but the number.

Use the examples below as a reference point.
CC(C)C[C@H](NC(=O)[C@H](CC(C)C)NC(=O)[C@H](CCCCN)NC(=O)[C@H](CCCCN)NC(=O)[C@H](CC(C)C)NC(=O)[C@H](CC(C)C)NC(=O)[C@H](CCCCN)NC(=O)[C@H](CCCCN)NC(=O)[C@H](CC(C)C)NC(=O)[C@H](CC(C)C)NC(=O)[C@H](CCCCN)NC(=O)[C@H](CCCCN)NC(=O)[C@H](CC(C)C)NC(=O)[C@H](CC(C)C)NC(=O)[C@@H](N)CCCCN)C(=O)N[C@@H](CCCCN)C(N)=O (H-KLLKKLLKKLLKKLLK-NH2)
2.31
CC(C)C[C@H](NC(=O)[C@H](CC(C)C)NC(=O)[C@H](CCCCN)NC(=O)[C@H](CCCCN)NC(=O)[C@H](CCC(=O)O)NC(=O)[C@H](CC(C)C)NC(=O)[C@H](CCCCN)NC(=O)[C@H](CCCCN)NC(=O)[C@H](CC(C)C)NC(=O)[C@H](CC(C)C)NC(=O)[C@H](CCCCN)NC(=O)[C@H](CCCCN)NC(=O)[C@H](CC(C)C)NC(=O)[C@@H](N)CC(C)C)C(N)=O (H-LLKKLLKKLEKKLL-NH2)
5.74

Now let's try a different one.
Q) Item CC(C)C[C@H](NC(=O)[C@H](CCCCN)NC(=O)[C@H](CC(C)C)NC(=O)[C@H](CC(C)C)NC(=O)[C@H](CCCCN)NC(=O)[C@H](CCCCN)NC(=O)[C@H](CC(C)C)NC(=O)[C@H](CC(C)C)NC(=O)[C@H](CCCCN)NC(=O)[C@H](CCCCN)NC(=O)[C@H](CC(C)C)NC(=O)[C@H](CC(C)C)NC(=O)[C@H](CCCCN)NC(=O)[C@H](CCCCN)NC(=O)[C@H](CC(C)C)NC(=O)[C@H](CC(C)C)NC(=O)[C@H](CCCCN)NC(=O)[C@@H](N)CCCCN)C(N)=O (H-KKLLKKLLKKLLKKLLKL-NH2) has what recorded selectivity ratio?
A) 1.11

These data points were gathered from ChEMBL document CHEMBL5584231.
